- Tested on: Saccharomyces cerevisiae
- methodNotes: protein stability index of tFT-peptide fusion (C-terminal peptide) (PSI (0-1 scale)); higher = more stable (slower turnover)
- conditionDetails: genetic background: wild type; temperature: 30 C
endpointName: protein stability index

Consider the sequence `ILFIKQKYLIKK` and give its recorded protein stability index.
0.688

Consider the sequence `PPQPTTPFPSPQ` and give its recorded protein stability index.
0.679

Consider the sequence `SLSAQTISDLSM` and give its recorded protein stability index.
0.68

Consider the sequence `CCKRWICLLRRK` and give its recorded protein stability index.
0.646

Consider the sequence `DLFPTLFFIRSR` and give its recorded protein stability index.
0.689

Consider the sequence `RASWVRTLMSCQ` and give its recorded protein stability index.
0.582

Consider the sequence `NASVRMFIRTGC` and give its recorded protein stability index.
0.697

###

- System: Saccharomyces cerevisiae
- methodNotes: protein stability index of tFT-peptide fusion (C-terminal peptide) (PSI (0-1 scale)); higher = more stable (slower turnover)
- conditionDetails: genetic background: das1 deletion; temperature: 30 C
Attribute: protein stability index
Keep it simple and answer with nothing but the number.

In the examples that follow, each entry is paired with its recorded protein stability index.
[
  {
    "itemSequence": "CVTQACGRTIKM [YBR141W-A C-terminal 12 aa]",
    "testedOn": "Saccharomyces cerevisiae",
    "obsValue": 0.732
  },
  {
    "itemSequence": "EIRKRRASSLKA [RPS6A C-terminal 12 aa]",
    "testedOn": "Saccharomyces cerevisiae",
    "obsValue": 0.649
  },
  {
    "itemSequence": "EEEAGYSDVEME [UTP5 C-terminal 12 aa]",
    "testedOn": "Saccharomyces cerevisiae",
    "obsValue": 0.694
  },
  {
    "itemSequence": "VLGDVIKIAQRL [HOM6 C-terminal 12 aa]",
    "testedOn": "Saccharomyces cerevisiae",
    "obsValue": 0.728
  },
  {
    "itemSequence": "STHIDHDKFSFF [CDC8 C-terminal 12 aa]",
    "testedOn": "Saccharomyces cerevisiae",
    "obsValue": 0.709
  }
]

Consider the sequence VFGGCATTWIVL [ATS1 C-terminal 12 aa] and give its recorded protein stability index.
0.697

Consider the sequence GGGYLTSLKLFI [YOR041C C-terminal 12 aa] and give its recorded protein stability index.
0.688

Consider the sequence VQQMVEMQGKMR [SGM1 C-terminal 12 aa] and give its recorded protein stability index.
0.711

Consider the sequence SKKSKKSKKSEE [MRH1 C-terminal 12 aa] and give its recorded protein stability index.
0.719

Consider the sequence QDEDEDEDIEMQ [RAD3 C-terminal 12 aa] and give its recorded protein stability index.
0.694

Consider the sequence YDANSWKQIKSC [PCL5 C-terminal 12 aa] and give its recorded protein stability index.
0.7

Consider the sequence ILWKNGIYIAHI [HUR1 C-terminal 12 aa] and give its recorded protein stability index.
0.659

###

- Test system: Saccharomyces cerevisiae
- methodNotes: protein stability index of tFT-peptide fusion (C-terminal peptide) (PSI (0-1 scale)); higher = more stable (slower turnover)
- conditionDetails: genetic background: wild type; temperature: 30 C
Attribute: protein stability index
Keep it simple and answer with nothing but the number.

Consider the sequence `DSGRRVTLLVFV` and give its recorded protein stability index.
0.594

Consider the sequence `SRSSRINLMRRW` and give its recorded protein stability index.
0.674

Consider the sequence `RLAPWATGVRMW` and give its recorded protein stability index.
0.676
